- System: KM12
- assay details: NCI tumour cell line growth inhibition, 48 h
Calls of active or inactive are those of the source. No stated cut-off is given here; in the data, active = GI50 up to about 1.1 µM and inactive = higher.
Outcomes: TRUE for active, FALSE for inactive

[
  {
    "compound": "O=C(NN1C(=O)C(Cl)C1c1ccc(O)cc1)c1ccccc1O (stereo unspecified)",
    "category": "FALSE"
  },
  {
    "compound": "COc1ccc2cc1Oc1ccc(cc1)C(Sc1ccccc1)CCOC(=O)CC2 (stereo unspecified)",
    "category": "FALSE"
  },
  {
    "compound": "COc1cc2c(cc1OC)C(C(CBr)CBr)N(C1CCCC1)CC2 (stereo unspecified)",
    "category": "FALSE"
  },
  {
    "compound": "COC(=O)N/N=C/c1oc(-c2ccccc2)c(-c2ccccc2)c1[N+](=O)[O-]",
    "category": "FALSE"
  },
  {
    "compound": "CN(C)CCCC12CCCCC1=Nc1ccccc12 (stereo unspecified)",
    "category": "FALSE"
  },
  {
    "compound": "CN(C)CCNCCCNc1c2ccccc2nc2cccc([N+](=O)[O-])c12",
    "category": "TRUE"
  }
]
